Species: Cavia porcellus
Experiment: Negative inotropic activity in guinea pig left atrium
Assay type: functional
Conditions: Cardiac atrium
pEC50: −log10 of the molar value.
TEST READOUT: pEC50

Study these solved cases before continuing.
For COC(=O)c1c(-c2c(Cl)cccc2Cl)noc1C , what is its reported pEC50?
6.04

Recorded pEC50 of C=CCN(c1ccccc1)S(=O)(=O)c1ccc(Cl)cc1 , please.
6.51

// lookup pEC50 for O=S(=O)(c1ccc(Cl)cc1)N(C1CCNCC1)C1CC1
6.50

What pEC50 value was documented for this compound, CSC1=NCCCN1S(=O)(=O)c1ccc(Cl)cc1 ?
5.88

Query (compound): CCN(c1ccccc1)S(=O)(=O)c1ccc(Cl)cc1 ; field requested: pEC50
6.52

1 = CCO[C@]1(c2ccc(Br)cc2)SC=C(C)n2c1noc2=O
2 = O=S(=O)(c1ccc(Cl)cc1)N(Cc1ccsc1)S(=O)(=O)c1ccc(Cl)cc1
3 = COC(=O)[C@H]1SCCN1S(=O)(=O)c1ccc(Cl)cc1
4 = CC(=O)c1ccccc1N1C(=O)CSCC1=O
Please list these compounds in decreasing order of pEC50. In plain terms: list the labels in the order you were asked to.
1, 4, 3, 2
(1: 7.15, 4: 6.40, 3: 6.00, 2: 5.59)

A = COC(=O)c1ccccc1-n1cccc1C(=O)C(Cl)(Cl)Cl
B = O=S(=O)(c1ccc(Cl)cc1)N1CCC[C@@H]1c1cccs1
C = Cc1snc(S(=O)(=O)Cc2c(F)cccc2Cl)c1C#N
Order field: pEC50 | Direction: descending (largest first) Order the labels as requested and give them as your answer.
B, C, A
(B: 6.51, C: 5.64, A: 5.41)
